I'd appreciate it if you could supply growth values for the items below.
# Test system: DU-145 prostate
# assayOverview: NCI-60 one-dose screen, 48 h (100 = growth as untreated, 0 = no growth, -100 = all killed)
# runParameters: 10 µM unless noted
This is part of a sample that, as a whole, favours compounds with a hit. Of some 83,000 tested, about 20% had one in any assay.
API: value field is a number in %; no unit string.

Request: Give the measured growth of c1ccc(N(c2ccccc2)c2ccccc2)cc1 .
Response: 113

Request: Now consider O=C(CCc1ccc(O)cc1)N/N=C/c1cc(Br)ccc1O and answer again.
Response: 63.2

Request: Now consider OCc1ccccn1 and answer again.
Response: 100

Request: Now consider Cc1ccc(S(=O)(=O)NCN2C(=O)c3ccccc3C2=O)cc1 and answer again.
Response: 125

Request: Now consider Nc1ccc2ccc(N)cc2c1 and answer again.
Response: 96.1

Request: Now consider Oc1ccccc1C=NCC1CCC(CN=Cc2ccccc2O)CC1 (stereo unspecified) and answer again.
Response: 3.17

Request: Now consider N#C/C(=C/c1c(O)ccc2ccccc12)C(N)=O and answer again.
Response: 104

Request: Now consider CNC(=O)c1cccc(-c2ccc3c(N4CCOC[C@@H]4C)nc(N4CCOC[C@@H]4C)nc3n2)c1 and answer again.
Response: 12.2

Request: Now consider CC(=O)C(/C=N/C(N)=O)=C(/C)O and answer again.
Response: 118

Request: Now consider CCCCCCCCCCCCOc1ccccc1C=O and answer again.
Response: 111

Request: Now consider COc1cc(C(=O)N/N=C/c2ccc(N(C)C)cc2)cc(OC)c1OC and answer again.
Response: 0.807

Request: Now consider Cc1n[nH]c(=O)n(/N=C\c2c[nH]c3ccccc23)c1=O and answer again.
Response: 118

Request: Now consider CCCCCCCCCCCCCCCCOc1ccc(C)cc1 and answer again.
Response: 110

Request: Now consider CCN(CC)C(=O)c1cccnc1 and answer again.
Response: 119

Request: Now consider Cc1c(Cl)cccc1NCN1C(=O)c2ccccc2C1=O and answer again.
Response: 115

Request: Now consider O=[N+]([O-])c1ccc2nc3c4ccccc4c4ccccc4c3nc2c1 and answer again.
Response: 100

Request: Now consider O=C(O)c1cc(C(=O)O)cc([N+](=O)[O-])c1 and answer again.
Response: 116

Request: Now consider Nc1nc(SC/C=C/CCl)c2[nH]cnc2n1 and answer again.
Response: 110

Request: Now consider N=C1N=C(N)CS1 and answer again.
Response: 115

Request: Now consider O=[N+]([O-])c1ccc(-n2[nH]nnc2=S)cc1 and answer again.
Response: 112

Request: Now consider CNC(=O)c1cccnc1 and answer again.
Response: 116

Request: Now consider O=C(O)CSCc1nc2ccccc2[nH]1 and answer again.
Response: 111

Request: Now consider Nc1ccc2[nH]c(-c3ccccc3)cc(=O)c2c1 and answer again.
Response: 101

Request: Now consider CC1=C(/C=C/C(C)=C/C=C/C(C)=C/C(=O)Nc2ccc(O)cc2)C(C)(C)CCC1 and answer again.
Response: 68.4

Request: Now consider COc1cc(/C=N/Nc2nc3c([nH]2)c(=O)n(C)c(=O)n3C)ccc1O and answer again.
Response: 114

Request: Now consider O=C1c2ccccc2C(=O)N1/N=C/c1ccc2c(c1)OCO2 and answer again.
Response: 116
